Hey, just so you know, these numbers are from patent US4533665A.

# measured_target: S2-receptor (Rattus norvegicus, UniProt P14842)
# Construct: Caudal arteries from fasted male rats; from tissue; host or cells: rat caudal artery, helical strips
# Sequence (P14842 whole entry): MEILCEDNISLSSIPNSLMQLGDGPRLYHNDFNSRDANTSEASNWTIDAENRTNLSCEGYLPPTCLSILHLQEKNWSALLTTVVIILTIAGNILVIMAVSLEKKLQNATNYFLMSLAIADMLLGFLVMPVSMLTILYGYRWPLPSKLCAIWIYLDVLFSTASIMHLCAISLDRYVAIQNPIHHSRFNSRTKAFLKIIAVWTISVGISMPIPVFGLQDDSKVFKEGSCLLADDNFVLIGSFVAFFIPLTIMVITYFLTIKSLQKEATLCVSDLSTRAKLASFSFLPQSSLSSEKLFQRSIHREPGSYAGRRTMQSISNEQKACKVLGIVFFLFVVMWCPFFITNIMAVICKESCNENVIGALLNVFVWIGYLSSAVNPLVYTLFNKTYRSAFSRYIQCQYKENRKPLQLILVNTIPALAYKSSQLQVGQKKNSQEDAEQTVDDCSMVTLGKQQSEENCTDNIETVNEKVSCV
# assay_text: antagonistic activity on the effect of serotonin on the caudal artery of the rat (caudal artery test)
# condition_label: rat caudal artery strips; serotonin 40 ng/ml; 5 minutes after adding the drug; read-out: ED50 (minimal concentration which reduces the amplitude of the serotonin-induced contraction to at least 50% of its normal value) (converted)
Structures can show the parent of a compound that is named as a salt.
quantity_name: IC50 (pM)

molecule="Cc1nc2n(c(=O)c1CCN1CCC(=C(c3ccc(F)cc3)c3cccc(C(F)(F)F)c3)CC1)CCCC2 [Compound 140, dihydrochloride]" prefix_operator== test_result=2.09
molecule="COC1CN(CCc2c(C)nc3sccn3c2=O)CCC1=C(c1ccc(F)cc1)c1ccc(F)cc1 (stereo not shown)" prefix_operator== test_result=2.56
molecule="Cc1nc2n(c(=O)c1CCN1CCC(=C(c3ccccc3)c3ccc(F)cc3)CC1)CCCC2 [Compound 137, dihydrochloride]" prefix_operator== test_result=2.45
molecule=Cc1nc2n(c(=O)c1CCN1CCC(=C(c3ccc(F)cc3)c3ccc(Br)cc3)CC1)CCS2 prefix_operator== test_result=1.04
molecule=Cc1nc2sccn2c(=O)c1CCN1CCC(=C(c2ccc(F)cc2)c2ccc(Cl)cc2)CC1 prefix_operator=< test_result=1.28
molecule=Cc1ccccc1C(=C1CCN(CCc2c(C)nc3scc(C)n3c2=O)CC1)c1ccccc1 prefix_operator=< test_result=5.32
molecule=Cc1nc2ccccn2c(=O)c1CCN1CCC(=C(c2ccccc2)c2ccccc2)CC1 prefix_operator=< test_result=1.45
